Form: system (Neuropeptide FF receptor 2 (Rattus norvegicus, UniProt Q9EQD2)), quantity (log10(Ki)), values below.
Where a SMILES comes first, the peptide text is derived from it. [ ]: non-standard residue; d: D form. NMeF = CN[C@@H](Cc1ccccc1)C(=O)O
Please be aware that the numbers have been log10-transformed from Ki in nM.

Use these answered entries as a reference point.
[
  {
    "COMPOUND": "N=C(N)NCCC[C@H](NC(=O)[C@@H](N)CCC(N)=O)C(=O)N[C@@H](Cc1ccccc1)C(N)=O (H-Gln-Arg-Phe-NH2)",
    "REPORTED": 2.48
  },
  {
    "COMPOUND": "CC(C)C[C@@H](NC(=O)[C@H](N)Cc1ccc(O)cc1)C(=O)N(C)[C@@H](Cc1ccccc1)C(=O)N[C@@H](CCC(N)=O)C(=O)N1CCC[C@H]1C(=O)N[C@@H](CCC(N)=O)C(=O)N[C@@H](CCCNC(=N)N)C(=O)N[C@@H](Cc1ccccc1)C(N)=O (H-[dY][dL][NMeF]QPQRF-NH2)",
    "REPORTED": -0.72
  },
  {
    "COMPOUND": "NC(=O)CC[C@H](NC(=O)[C@H]1CCCN1C(=O)[C@@H](N)CCC(N)=O)C(=O)N[C@@H](CCCN=C(N)N)C(=O)N[C@@H](Cc1ccccc1)C(N)=O",
    "REPORTED": 1.81
  }
]

IN: Record "NC(=O)CC[C@H](NC(=O)[C@@H]1CCCN1C(=O)[C@@H](N)CCC(N)=O)C(=O)N[C@@H](CCCN=C(N)N)C(=O)N[C@@H](Cc1ccccc1)C(N)=O" : what is its log10(Ki) with Neuropeptide FF receptor 2 (Rattus norvegicus, UniProt Q9EQD2)?
OUT: 1.32

IN: Record CC(C)C[C@H](NC(=O)[C@H](N)Cc1ccc(O)cc1)C(=O)N(C)[C@@H](Cc1ccccc1)C(=O)N[C@@H](CCC(N)=O)C(=O)N1CCC[C@H]1C(=O)N[C@@H](CCC(N)=O)C(=O)N[C@@H](CCCN=C(N)N)C(=O)N[C@@H](Cc1ccccc1)C(N)=O (H-[dY]L[NMeF]QPQRF-NH2) : what is its log10(Ki) with Neuropeptide FF receptor 2 (Rattus norvegicus, UniProt Q9EQD2)?
OUT: -0.80

IN: Record "NC(=O)CC[C@H](NC(=O)[C@H]1CCCN1C(=O)[C@H](CCC(N)=O)NC(=O)[C@@H](N)Cc1ccccc1)C(=O)N[C@@H](CCCN=C(N)N)C(=O)N[C@@H](Cc1ccccc1)C(N)=O" : what is its log10(Ki) with Neuropeptide FF receptor 2 (Rattus norvegicus, UniProt Q9EQD2)?
OUT: 1.65
